A short record of pD2 observed with UniProtKB B0FL73 follows.
Sequence (B0FL73 1-467): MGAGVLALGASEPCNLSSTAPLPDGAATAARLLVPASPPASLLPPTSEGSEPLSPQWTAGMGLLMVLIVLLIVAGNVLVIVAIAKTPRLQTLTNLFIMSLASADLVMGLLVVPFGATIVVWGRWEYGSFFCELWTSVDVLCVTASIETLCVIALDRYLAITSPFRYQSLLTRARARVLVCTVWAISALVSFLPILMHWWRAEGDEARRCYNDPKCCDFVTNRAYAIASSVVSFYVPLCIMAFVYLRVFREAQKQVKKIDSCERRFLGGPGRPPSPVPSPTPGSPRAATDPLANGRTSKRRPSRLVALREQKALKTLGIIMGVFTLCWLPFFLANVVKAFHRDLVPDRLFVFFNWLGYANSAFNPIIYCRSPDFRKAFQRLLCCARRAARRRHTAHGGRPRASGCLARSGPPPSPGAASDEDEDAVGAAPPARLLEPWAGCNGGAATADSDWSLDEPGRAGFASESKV

Below are worked cases with known answers.
COc1cc(CC2c3cc4c(cc3CCN2CCCl)OS(=O)O4)cc(OC)c1OC (stereo not drawn) : 5.24
COc1cc(C[C@@H]2NCCc3cc(O)c(O)cc32)cc(OC)c1OC : 7.26

Task: Find the recorded pD2 belonging to COc1cc(CC2NCCc3cc(O)c(O)cc32)cc(OC)c1OC (stereo not drawn) and report it.
Result: 7.1

Task: Thanks! And COc1cc(CC2c3cc(O)c(O)cc3CCN2Cc2ccccc2)cc(OC)c1OC (stereo not drawn) ?
Result: 4.34

Task: Thanks! And COc1cc(CC2c3cc(O)c(O)cc3CCN2CCCl)cc(OC)c1OC (stereo not drawn) ?
Result: 4.88

Task: Thanks! And COc1cc(CC2c3cc(O)c(O)cc3CCN2C)cc(OC)c1OC (stereo not drawn) ?
Result: 5.89

Task: Thanks! And COc1cc(CC2c3cc(O)c(O)cc3CCN2CCO)cc(OC)c1OC (stereo not drawn) ?
Result: 5.35

Task: Thanks! And `COc1cc(C[C@H]2NCCc3cc(O)c(O)cc32)cc(OC)c1OC` ?
Result: 5.58
